# credit: ChEMBL document CHEMBL5244273

Would you mind telling me the reported selectivity ratio of each entry?
assay: Selectivity index, ratio of IC50 for cytotoxicity against Chinese hamster CHO-K1 cells to MIC for antimycobacterial activity against Mycobacterium tuberculosis H37Rv; format: toxicity, cell-based; conditions: read-out: Selectivity Index
Respond with the number and no other words.

# input Fill blank: measured selectivity ratio of the molecule `Sc1nnc(-c2ccc(I)cc2)o1` is ____.
# output 51.8

# input Tell me the measured selectivity ratio of `Sc1nnc(-c2cc(Br)co2)o1` , please.
# output 25.6

# input Name the reported selectivity ratio value associated with the molecule `Sc1nnc(-c2cc3ccccc3[nH]2)o1`
# output 16.6

# input molecule: `Sc1nnc(-c2cc3ccccc3o2)o1` ; wanted: its selectivity ratio
# output 26.4

# input Requested read-out: selectivity ratio. Entry: `S=c1[nH]nc(-c2ccccc2)o1`
# output 15.1

# input Look up selectivity ratio for this molecule: `Oc1ccc(-c2nnc(S)o2)cc1`
# output 39.6
